Give TGI for every item shown.
- Test system: ACHN renal
- assay_explanation: NCI tumour cell line growth inhibition, 48 h

Examples from the recorded data:
{"columns": ["compound", "TGI"],
 "data": [
  ["COC(=O)c1cc2c(c(C(=O)OC)c1)CCC2", "> 100 µM"],
  ["Cc1cc(N(CCC#N)CCC#N)ccc1/C(N=Nc1ccc([N+](=O)[O-])cc1)=N\\NC(=O)c1cc(Cl)ccc1O", "> 100 µM"],
  ["O=C1c2ccccc2C(=O)N1CCc1ncc(-c2ccccc2)[nH]1", "> 100 µM"],
  ["CCOC(=O)CNC(=O)C(CCC(=O)N(C)O)NC(=O)CCC(N)C(=O)O (stereo unspecified)", "> 100 µM"],
  ["CC(NC1=NCCO1)c1ccccc1Cl (stereo unspecified)", "> 100 µM"]
]}

Attention now shifts to the item below.
[in] Param item = `COC(=O)C1=C(C)NC(=O)N2[C@@H](CCOCc3ccccc3)CC[C@@H]12` ; retrieve measured TGI.
[out] > 50 µM

---

I'd appreciate it if you could supply TGI values for the items below.
- Test system: OVCAR-4 ovarian
- assay_explanation: NCI tumour cell line growth inhibition, 48 h

In the examples that follow, each entry is paired with its recorded TGI.
{"columns": ["compound", "experimental_endpoint", "readout_value"],
 "data": [
  ["CC(=O)OC12C(C)=C(C)C(=O)N1c1ccccc1N2C(C)=O (stereo not given)", "TGI", "> 100 µM"],
  ["OC1NC2Nc3ccccc3NC2NC1O (stereo not given)", "TGI", "> 100 µM"],
  ["FC1(F)ON2CCc3ccccc3C2[C@H]1c1ccccc1 (stereo not given in full)", "TGI", "> 100 µM"]
]}

// batch mode: one TGI value per listed entry
1. Cc1cn(C2CC(n3cc(Cn4ccc(=O)[nH]c4=O)nn3)C(CO)O2)c(=O)[nH]c1=O (stereo not given)
2. CN(C)CCNc1ccc2ncn3c4ccc(O)cc4c(=O)c1c23

[out]
1. > 100 µM
2. 4.89 µM

---

- System: RXF-631 renal
- assay_explanation: NCI tumour cell line growth inhibition, 48 h
experimental_endpoint: TGI

{"columns": ["compound", "readout_value"],
 "data": [
  ["CN(C)c1ccc(/C=c2\\sc3nnc(-c4ccco4)n3c2=O)cc1", "> 100 µM"],
  ["CC(Oc1ccc2c(-c3ccc(Cl)cc3)cc(=O)oc2c1)C(=O)O (stereo not drawn)", "> 100 µM"]
]}

# next compound below
[in] Which TGI reading was recorded for the compound `COc1ccc(CC(=O)NCCc2ccc(OC)c(OC)c2OC)cc1` ?
[out] > 100 µM

---

- System: SF-295 CNS
- assay_explanation: NCI tumour cell line growth inhibition, 48 h
Give TGI for every item shown.

Examples from the recorded data:
{"columns": ["compound", "TGI"],
 "data": [
  ["CN(C)Cc1cc(Cl)c(O)c(CN(C)C)c1", "> 100 µM"],
  ["CCC[CH2][Sn](=[O])[CH2]CCC", "> 50 µM"]
]}

For each of the compounds below, state TGI.
1. C(=N\c1nc2cc3sc(/N=C/c4ccccc4)nc3cc2s1)/c1ccccc1
2. COC(=O)/C=C1/SC(=Nc2cccc(Cl)c2)N(CCc2c[nH]c3ccc(O)cc23)C1=O

[out]
1. > 100 µM
2. 4.15 µM
